# system tested: human MMP13 (Homo sapiens (Human), UniProt P45452)
# condition details: read-out: hMMP-13 potency IC50
pIC50: −log10 of the molar value.
property name: pIC50

{"compound": "CC(CC1(C2CCOCC2)NC(=O)NC1=O)C(=O)N1CCN(c2cc(Cl)cc(Cl)c2)CC1 (centres unmarked)", "property name": "pIC50", "observed result": "< 4.70"}
{"compound": "Cc1c(Cl)cccc1N1CCN(C(=O)C(C)CC2(C3CC3)NC(=O)NC2=O)CC1 (centres unmarked)", "property name": "pIC50", "observed result": "< 4.70"}
{"compound": "CC1CN(C(=O)CCC2(c3cccnc3)NC(=O)NC2=O)CCN1c1ccc(Cl)cc1 (centres unmarked)", "property name": "pIC50", "observed result": "< 5.40"}
{"compound": "CC(CC1(COCc2ccccc2)NC(=O)NC1=O)C(=O)N1CCN(c2cc(Cl)cc(Cl)c2)CC1 (centres unmarked)", "property name": "pIC50", "observed result": 5.89}
{"compound": "Cc1ccc(F)cc1N1CCN(C(=O)C(C)CC2(C3CC3)NC(=O)NC2=O)CC1 (centres unmarked)", "property name": "pIC50", "observed result": "< 4.70"}
{"compound": "C[C@H]1CN(C(=O)CCC2(C3CC3)NC(=O)NC2=O)CCN1c1ccc(Cl)cc1 (some centres unmarked)", "property name": "pIC50", "observed result": "< 5.40"}
{"compound": "Cc1ccccc1N1CCN(C(=O)CCC2(C3CC3)NC(=O)NC2=O)CC1 (centres unmarked)", "property name": "pIC50", "observed result": "< 4.70"}
{"compound": "Cc1c(Cl)cccc1N1CCN(C(=O)CCC2(C3CC3)NC(=O)NC2=O)CC1 (centres unmarked)", "property name": "pIC50", "observed result": "< 4.70"}
{"compound": "CC1(CCC(=O)N2CCN(c3cncc(Cl)c3)CC2)NC(=O)NC1=O (centres unmarked)", "property name": "pIC50", "observed result": "< 4.70"}
{"compound": "C[C@H]1CN(C(=O)CCC2(C)NC(=O)NC2=O)CCN1c1cc(F)cc(F)c1 (some centres unmarked)", "property name": "pIC50", "observed result": "< 4.70"}
{"compound": "Cc1ccc(F)cc1N1CCN(C(=O)C(C)CC2(C)NC(=O)NC2=O)CC1 (centres unmarked)", "property name": "pIC50", "observed result": "< 4.70"}
{"compound": "O=C1NC(=O)C(CCC(=O)N2CCN(c3cccc(F)c3)CC2)(c2cccnc2)N1 (centres unmarked)", "property name": "pIC50", "observed result": 5.73}
{"compound": "C[C@H]1CN(C(=O)CCC2(C3CC3)NC(=O)NC2=O)CCN1c1cc(Cl)cc(Cl)c1 (some centres unmarked)", "property name": "pIC50", "observed result": "< 4.70"}
{"compound": "C[C@H]1CN(C(=O)CCC2(C3CC3)NC(=O)NC2=O)CCN1c1ccc(F)c(Cl)c1 (some centres unmarked)", "property name": "pIC50", "observed result": "< 4.70"}
{"compound": "O=C1NC(=O)C(CCC(=O)N2CCN(c3cccc(Cl)c3)CC2)(C2CC2)N1 (centres unmarked)", "property name": "pIC50", "observed result": 5.49}
{"compound": "O=C(CC1(CCC(=O)N2CCN(c3cc(Cl)cc(Cl)c3)CC2)NC(=O)NC1=O)NCCO (centres unmarked)", "property name": "pIC50", "observed result": "< 4.70"}
{"compound": "O=C1NC(=O)C(CCC(=O)N2CCN(c3cc(Cl)cc(Cl)c3)CC2)(c2ccccn2)N1 (centres unmarked)", "property name": "pIC50", "observed result": "< 4.70"}
{"compound": "C[C@@H]1CN(C(=O)CCC2(c3cccnc3)NC(=O)NC2=O)CCN1c1ccccc1 (some centres unmarked)", "property name": "pIC50", "observed result": "< 4.70"}
{"compound": "Cc1ccc(Cl)cc1N1CCN(C(=O)CCC2(c3ccc(Cl)cc3)NC(=O)NC2=O)CC1 (centres unmarked)", "property name": "pIC50", "observed result": "< 4.70"}
{"compound": "NCC1(CCC(=O)N2CCN(c3cc(Cl)cc(Cl)c3)CC2)NC(=O)NC1=O (centres unmarked)", "property name": "pIC50", "observed result": "< 4.70"}
{"compound": "C[C@H]1CN(C(=O)CCC2(c3ccccc3)NC(=O)NC2=O)CCN1c1ccccc1 (some centres unmarked)", "property name": "pIC50", "observed result": "< 4.70"}
{"compound": "C[C@]1(CCC(=O)N2CCN(c3cc(Cl)cc(Cl)c3)CC2)NC(=O)NC1=O", "property name": "pIC50", "observed result": "< 4.70"}
{"compound": "COc1ccccc1C1(CCC(=O)N2CCN(c3cccc(Cl)c3)CC2)NC(=O)NC1=O (centres unmarked)", "property name": "pIC50", "observed result": 5.41}
{"compound": "CC(CC1(CCS(C)(=O)=O)NC(=O)NC1=O)C(=O)N1CCN(c2cc(Cl)cc(Cl)c2)CC1 (centres unmarked)", "property name": "pIC50", "observed result": 5.65}
{"compound": "Cc1c(F)cccc1N1CCN(C(=O)CCC2(C)NC(=O)NC2=O)CC1 (centres unmarked)", "property name": "pIC50", "observed result": "< 4.70"}
{"compound": "O=C1NC(=O)C(CC(O)C(=O)N2CCN(c3cc(Cl)cc(Cl)c3)CC2)(C2CC2)N1 (centres unmarked)", "property name": "pIC50", "observed result": "< 4.70"}
{"compound": "CC(CC1(C2CC2)NC(=O)NC1=O)C(=O)N1CCN(c2cc(F)cc(Cl)c2)[C@@H](C)C1 (some centres unmarked) [compound 194]", "property name": "pIC50", "observed result": 6.02}
{"compound": "CC(CC1(C)NC(=O)NC1=O)C(=O)N1CCN(c2ccccc2)[C@@H](C)C1 (some centres unmarked)", "property name": "pIC50", "observed result": "< 5.40"}
{"compound": "CC(CC1(C)NC(=O)NC1=O)C(=O)N1CCN(c2cccc(F)c2)[C@@H](C)C1 (some centres unmarked)", "property name": "pIC50", "observed result": "< 5.40"}
{"compound": "CC(CC1(C2CC2)NC(=O)NC1=O)C(=O)N1CCN(c2ccc(Cl)cc2)[C@@H](C)C1 (some centres unmarked) [compound 412]", "property name": "pIC50", "observed result": 6.36}
{"compound": "C[C@H]1CN(C(=O)CCC2(C3CC3)NC(=O)NC2=O)CCN1c1cccc(F)c1 (some centres unmarked)", "property name": "pIC50", "observed result": "< 4.70"}
{"compound": "C[C@H]1CN(C(=O)CC[C@@]2(C3CC3)NC(=O)NC2=O)CCN1c1ccc(F)c(F)c1", "property name": "pIC50", "observed result": "< 4.70"}
